Target: LcPol theta-pol Δloop1 (Lates calcarifer, UniProt PDB:8EFK_1 1-864, del443-461)
Sequence (chain, as listed by the source del443-461 | mutant): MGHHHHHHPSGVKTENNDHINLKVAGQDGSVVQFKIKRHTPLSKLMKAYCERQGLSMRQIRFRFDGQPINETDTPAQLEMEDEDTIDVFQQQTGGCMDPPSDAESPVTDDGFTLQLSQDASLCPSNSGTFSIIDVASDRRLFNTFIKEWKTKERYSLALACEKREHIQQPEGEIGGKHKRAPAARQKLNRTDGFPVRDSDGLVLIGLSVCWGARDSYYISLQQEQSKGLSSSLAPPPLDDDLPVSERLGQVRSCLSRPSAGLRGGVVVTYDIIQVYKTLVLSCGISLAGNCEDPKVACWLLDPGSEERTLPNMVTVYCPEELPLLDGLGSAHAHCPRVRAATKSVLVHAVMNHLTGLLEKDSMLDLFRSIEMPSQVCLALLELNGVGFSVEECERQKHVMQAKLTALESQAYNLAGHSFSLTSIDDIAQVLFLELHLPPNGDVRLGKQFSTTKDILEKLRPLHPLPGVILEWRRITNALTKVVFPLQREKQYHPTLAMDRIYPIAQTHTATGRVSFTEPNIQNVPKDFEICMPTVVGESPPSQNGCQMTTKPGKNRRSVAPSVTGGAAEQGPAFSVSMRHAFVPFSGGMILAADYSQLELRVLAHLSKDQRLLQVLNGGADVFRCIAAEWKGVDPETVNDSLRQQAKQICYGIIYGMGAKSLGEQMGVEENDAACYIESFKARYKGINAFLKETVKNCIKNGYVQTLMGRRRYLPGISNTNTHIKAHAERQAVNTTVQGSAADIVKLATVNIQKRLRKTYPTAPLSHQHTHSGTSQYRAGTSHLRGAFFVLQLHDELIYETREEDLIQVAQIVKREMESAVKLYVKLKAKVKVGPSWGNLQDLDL
Assay: EMSA; 2.5 mM EDTA, no dNTP; EMSA: 10 nM HP [3,9], 25 mM HEPES pH 8.0, 100 mM KCl, 3 mM DTT, 100 ug/ml BSA, 10% glycerol, 2.5 mM EDTA, 0.01% NP40, on ice 20 min; 6% native PAGE, Tris-glycine; Hill fit
Settings: protein: recombinant; tags: His6-SUMO, removed by SENP2; label: 5' 6-FAM; hairpin, 3-bp stem, 9-nt dT loop, 5' overhang 8 nt
assay.metric: pKd
When answering, recall that pKd equals minus log10 of the concentration in mol/L, and write that number alone.

Tell us which pKd value is on record for TTTTTTTTGGCTTTTTTTTTGCC (structured_DNA) [HP [3,9]]
6.86
